Where do the numbers come from? From paper PMC6210068.

Below is a list of entries, each paired with its recorded Ki value.
Target sequence: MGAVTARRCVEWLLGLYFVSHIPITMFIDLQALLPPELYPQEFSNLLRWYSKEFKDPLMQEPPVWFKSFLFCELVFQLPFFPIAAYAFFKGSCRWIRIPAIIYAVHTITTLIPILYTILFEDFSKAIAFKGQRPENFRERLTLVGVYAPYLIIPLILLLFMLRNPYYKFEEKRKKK
Reported Endpoint: Ki (nM)

1) O[C@@H]1[C@H](O)[C@@H]2C[C@@H]2[C@H]1n1cnc2c(NCCc3ccccc3)nc(C#Cc3ccccc3)nc21 1480
2) O[C@@H]1[C@H](O)[C@@H]2C[C@@H]2[C@H]1n1cnc2c(NCc3cccc(Cl)c3)nc(C#Cc3ccccc3)nc21 2730
3) CNC(=O)[C@@]12C[C@@H]1[C@@H](n1cnc3c(NCc4cccc(Cl)c4)nc(C#Cc4ccccc4)nc31)[C@H](O)[C@@H]2O 1540
